Where do the numbers come from? From ChEMBL document CHEMBL1201862.

tested on: COLO 205; assay: NCI tumour cell line growth inhibition, 48 h
Calls of active or inactive are those of the source. Cut-off read from the data, not from the text of the source: active = GI50 up to about 1.1 µM and inactive = higher.
PROPERTY NAME: GI50

Look over these answered cases.
Which GI50 reading was recorded for the molecule COc1cc2c(cc1C)NC(=O)/C2=C/c1c(Cl)n(-c2ccccc2)c2ccccc12 ? 5.86 µM (inactive)

Look at this molecule and give its reported GI50. CSc1nc2c(c(=O)[nH]1)N=C(c1ccc(Cl)cc1)CC(c1ccccc1)N2 (configuration not stated) 19.8 µM (inactive)

Look up GI50: O=C1/C(=C/c2ccccc2S)N=C(c2ccccc2)N1c1ccc2c(c1)Sc1cc(N3C(=O)/C(=C/c4ccccc4S)N=C3c3ccccc3)ccc1N2 31.4 µM (inactive)

Find the recorded GI50 belonging to COc1nc2ncc([C@@H](O)[C@H](O)CO)nc2c(=O)n1C and report it. > 100 µM (inactive)

Recorded GI50 for O=S(=O)(O)c1cc(O)c(/N=N\C2S(=O)(=O)OCCOS2(=O)=O)c2ccccc12 , please? > 100 µM (inactive)

New cases:
Recorded GI50 for OC[C@@H](O)[C@H](O)[C@@H](O)/C=N/Nc1ccc(Cl)nn1 , please? > 100 µM (inactive)

Which measured GI50 value corresponds to O=C1OCC=C1COC1OC(CO)C(O)C(O)C1O (configuration not stated) ? > 100 µM (inactive)

----------
test system: MOLT-4; assay: NCI tumour cell line growth inhibition, 48 h
Calls of active or inactive are those of the source. No stated cut-off is given here; in the data, active = GI50 up to about 1.1 µM and inactive = higher.
The reply should name one outcome from active, inactive

What classification did O=C(OCCN=c1c2ccccc2ccc2ccccc12)c1ccc([N+](=O)[O-])cc1 end up with in this test? inactive

Could you check what this test reported for O=[N+]([O-])c1ccc(-c2csc(=[N+]3CCCCC3)s2)cc1 ? inactive

Please share the test call associated with CCOC(=O)CCC(NC(=O)c1ccc(OCc2nc3ccccc3n3cccc23)cc1)C(=O)OCC (configuration not stated) . inactive

# lookup: test call for CNC(=O)c1cccc2c(Nc3ccc(NS(C)(=O)=O)cc3OC)c3cccc(C)c3nc12 active

Which outcome was entered for the compound CSc1ccc(/C=C2\N=C(c3ccccc3)N(c3nc4c(Cl)cc(Cl)cc4s3)C2=O)cc1 in this test? inactive

Next:
What call does the record list for O=C(O)CCC(NC(=O)c1ccc(Oc2nc3ccccc3nc2-c2ccccc2)cc1)C(=O)O (configuration not stated) ? inactive

Record request — test call for COc1cc2c(c(OC)c1OC)-c1ccc(SC)c(=O)cc1[C@@H](NC(=O)C(F)(F)F)CC2 active

# outcome recorded in this test, key = O=C(NS(=O)(=O)c1ccccc1)C(Cc1ccccc1)C(Cc1ccccc1)C(=O)NS(=O)(=O)c1ccccc1 (configuration not stated) inactive

In this assay, the call recorded for CCOC(=O)C1(C(=O)OCC)CC(=O)[C@@]2(C1)OCC[C@H]1OC(=O)C[C@H]12 was what? inactive

For this compound, state the assay outcome: CC1(C)CNC(=O)C2(CCCO2)CNC(C)(C)CNC(=O)C2(CCCO2)CN1 (configuration not stated) inactive

Recorded call for CCOC(O)C(F)(F)F (configuration not stated) ? inactive

Hi, sorry to bother you, what did the test record for O=S(=O)(c1ccc(Br)cc1)N1CCN(S(=O)(=O)c2ccc(Br)cc2)CC1 ? inactive

----------
system: NCI/ADR-RES; test: NCI tumour cell line growth inhibition, 48 h
Activity calls are given as the source filed them. No stated cut-off is given here; in the data, active = GI50 up to about 1.1 µM and inactive = higher.
# GI50 annotations

Recorded results for 3 compounds are shown here.
Item O=c1cc(N2CCCC2)[nH]c(=O)n1-c1ccc(Cl)cc1 has what recorded GI50? > 100 µM (inactive)

Item COC(=O)c1ccc(/C=C2\Oc3cc(O)ccc3C2=O)cc1 has what recorded GI50? > 100 µM (inactive)

Return reported GI50; argument: Nc1ccc(Oc2ccc(C34CC5CC(C3)CC(c3ccc(Oc6ccc(N)cc6)cc3)(C5)C4)cc2)cc1 13.9 µM (inactive)

Others:
Fill in the blank: the reported GI50 of CCOC(=O)C1(C(=O)OCC)CC(=O)[C@@]2(C1)OCC[C@H]1OC(=O)C[C@H]12 is ____. > 100 µM (inactive)

Item under review: CC(C)N(C)C(=O)C12C3C4C1C1C2C3C41C#N (configuration not stated) . Reported GI50? > 100 µM (inactive)

Given CNC(=O)c1cccc2c(Nc3ccc(NS(C)(=O)=O)cc3OC)c3cccc(C)c3nc12 , state its recorded GI50. 2.26 µM (inactive)

Name the recorded GI50 for C[C@H]1/C(=C/C(=O)OCCN(C)C)CC[C@H]2[C@H]1C(=O)C[C@H]1C(C)(C)[C@@H](O)CC[C@]21C . > 100 µM (inactive)

Can you share its GI50? I mean this compound: O=C(Nc1ccccc1Cl)c1cc(S(=O)(=O)Nc2n[nH]c(=O)n2-c2ccccc2)c(S)cc1Cl > 100 µM (inactive)

Which value of GI50 has been reported for O=c1c(C(c2ccc(/C=C/c3ccccc3)cc2)c2c(O)oc3ccccc3c2=O)c(O)oc2ccccc12 in the records? 24.9 µM (inactive)

Look at this compound and give its reported GI50. COC1CC(C)(NC(=O)C(F)(F)F)C2OC(c3ccccc3)OCC2O1 (configuration not stated) > 100 µM (inactive)

If you can, please state the reported GI50 value of O=C1O[C@H]2[C@H](O)[C@@H](OC(=O)c3cc(O)c(O)c4c3[C@@H]3C1=CC(=O)C(O)(O)C3(O)O4)[C@H](OC(=O)c1cc(O)c(O)c(O)c1)O[C@@H]2CO (some centres not stated) . > 100 µM (inactive)

State the recorded GI50 for this entry: c1c[nH]c(CN2CCN(Cc3ncc[nH]3)CC2)n1 > 100 µM (inactive)

----------
tested on: HL-60; experiment: NCI tumour cell line growth inhibition, 48 h
Activity calls are given as the source filed them. No stated cut-off is given here; in the data, active = GI50 up to about 1.1 µM and inactive = higher.
Choose one outcome from this list and give only that: class 1 for active, class 0 for inactive

Take a look at these entries with their results.
Which outcome did this test record for the compound CCCC(=O)OCC(COC(=O)CCC)OC(=O)CCC ? class 0

Status in this test for CN1CCn2c(Br)ccc2C1=O ? class 0

Query: recorded result category for O=C1CCCC2=C1CC1=C(CCCC1=O)N2c1cccc([N+](=O)[O-])c1 in this test class 0

---
I'd appreciate the recorded outcome for CC(=O)O[C@H]1CC[C@@]2(C)[C@H](CC[C@@H]3[C@@H]2CC[C@]2(C)[C@@H](c4ccc(=O)oc4)C[C@H]4O[C@]342)C1 from this test. class 1

Give the logged outcome of this assay for the following compound: CN1C(=O)CSC1=S class 0

State the result this test recorded for CCN1CC2=C(N=c3s/c(=C\c4ccc(Cl)cc4)c(=O)n3C2c2ccc(Cl)cc2)/C(=C/c2ccc(Cl)cc2)C1 (stereo not drawn) . class 0

Record lookup: outcome of this test for COC1CC(C)(NC(=O)C(F)(F)F)C2OC(c3ccccc3)OCC2O1 (stereo not drawn) ? class 0

Tell me the recorded outcome of this test for Clc1ccc(CNc2nc3ccccc3nc2-c2cccs2)c(Cl)c1 . class 0

----------
test system: SF-539; experiment: NCI tumour cell line growth inhibition, 48 h
Activity calls are given as the source filed them. Cut-off read from the data, not from the text of the source: active = GI50 up to about 1.1 µM and inactive = higher.
# GI50 listing for each entry below

Example entries and their recorded answers appear below.
Please look up its GI50: CP(C)C.[Ag][I] > 100 µM (inactive)

State the recorded GI50 for this entry: CC(=O)/C(=C\C1=CCCO1)C(=O)Nc1ccccc1C > 100 µM (inactive)

GET /values?readout=GI50&item= CC1=NN(c2cccc(Cl)c2)C2(SCC(=O)N2c2nc3ccccc3s2)/C1=C\c1ccc(N(C)C)cc1 (stereo not given) 52.2 µM (inactive)

Continuing:
Which GI50 is reported for this compound? FC(F)(F)c1nc(Br)[nH]c1C(F)(F)F > 100 µM (inactive)

Which GI50 reading was recorded for the compound Fc1ccc(C(OCCN2CC3CC2CN3CCCc2ccccc2)c2ccc(F)cc2)cc1 (stereo not given) ? 2.37 µM (inactive)

----------
GI50 values by entry
tested on: SK-MEL-2; assay: NCI tumour cell line growth inhibition, 48 h
The source made the active and inactive calls. Rule as the data show it: active = GI50 up to about 1.1 µM and inactive = higher.

Which GI50 reading was recorded for the compound O=C(O)CC12CC3CC(CC(O)(C3)C1)C2 ? > 100 µM (inactive)

---
I have this compound here, CN1CCc2c([nH]c3ccccc23)C1 , and I need its recorded GI50. > 100 µM (inactive)

What value of GI50 has been recorded for this entry: CCCCOC(=O)Nc1ccc(S(=O)(=O)Nc2c(Cl)cccc2Cl)cc1 26.9 µM (inactive)

Look up GI50: O=C1c2ccccc2C(=O)C2NC(CCCCCSSCCCCCC3=NC4C(=O)c5ccccc5C(=O)C4N3)=NC12 (stereo unspecified) > 100 µM (inactive)

Consider the compound COC(=O)/C(=N\NC(=S)NN)C(C(=O)C(=O)Nc1ccccc1C(N)=O)c1nc2ccccc2nc1O (stereo unspecified) and give its measured GI50. > 100 µM (inactive)

Value lookup for GI50; key = O=C(CNc1c(Cl)cccc1Cl)NC1C=Cc2ccc(S(=O)(=O)Nc3c(Cl)cccc3Cl)cc2C1=O (stereo unspecified) 56.8 µM (inactive)

Entry COc1cc2cc(C(=O)N3C[C@H](CCl)c4c3cc(N)c3ccccc43)[nH]c2c(OC)c1OC has what GI50? 2.05 µM (inactive)

Any idea what GI50 was measured for CC(NNC(=O)c1cc[n+]([BH2-]C#N)cc1)c1ccc(Cl)c(Cl)c1 (stereo unspecified) ? 32.2 µM (inactive)

Given the compound CN1C(=O)CSC1=S , what is its reported GI50? > 100 µM (inactive)

Record request: GI50 value, item C[N+](C)(C)CC(=O)N/N=C(\C(=O)NC1=C(Cl)C(=O)c2ccccc2C1=O)C(C#N)c1csc(-c2ccc([N+](=O)[O-])cc2)n1 (stereo unspecified) > 100 µM (inactive)

Any idea what its GI50 is? The compound is Cc1c(Cc2ccccc2)n(COCCCO)c(=O)[nH]c1=O > 100 µM (inactive)
